# Tested on: ERN1;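 further: KINOMEscan kinase panel screen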
# stated_conditions: concentration: 1 μM, replicates: in singlicate; n = 1
Measured %Inh accompanies every entry in the list below.
Give a bare numeral; the unit % is implied.

Sample records with %Inh:
> print(dat)
                           smiles.structure  readout.kind  assay.value
1  O=S(=O)(c1ccc(-c2ccnc3[nH]ccc23)cc1)N1CCCC1          %Inh           35
2  Cn1cncc1-c1ccc2ncnc(Nc3ccc(OCc4ccccc4)cc3)c2c1          %Inh            0
3  CC(C)(C)c1ccc(C(=O)Nc2cn3cc(Cl)ccc3n2)cc1          %Inh            0
4  Cn1ccc2ncnc(Oc3ccc(Nc4nc5ccccc5[nH]4)cc3)c21          %Inh            0

Kindly consider the entry below.
In: Value lookup for %Inh; key = O=C(Nc1n[nH]c2cc(-c3cccc(F)c3F)ccc12)C1CC1
Out: 5
